STUDY_SYSTEM: human C5aR(CD88) (Homo sapiens, UniProt P21730)
Construct: expressed in transfected cells; host or cells: rat basophilic leukemia cells (RBL)
Sequence (P21730 whole entry): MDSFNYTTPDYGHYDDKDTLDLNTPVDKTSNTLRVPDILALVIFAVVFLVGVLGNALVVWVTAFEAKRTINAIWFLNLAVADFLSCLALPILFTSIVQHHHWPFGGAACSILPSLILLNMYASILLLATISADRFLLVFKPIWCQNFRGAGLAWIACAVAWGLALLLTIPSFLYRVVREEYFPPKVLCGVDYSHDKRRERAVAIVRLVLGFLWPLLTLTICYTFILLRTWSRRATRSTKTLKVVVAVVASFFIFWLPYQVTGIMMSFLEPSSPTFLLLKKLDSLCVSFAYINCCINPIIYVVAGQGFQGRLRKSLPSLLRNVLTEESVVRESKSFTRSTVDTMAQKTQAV
PROTOCOL_DETAILS: Determination of the IC50 value in an enzyme release assay (functional assay, antagonistic activity)
Type: cell-based
EXPERIMENTAL_SETUP: antagonistic activity; IC50 group in enzyme release assay, RBL cells expressing human C5aR(CD88); read-out: activity (group)
pIC50: −log10 of the molar value. Starred links: 1 amine or outer side, 2 acyl side, 3 side chain; linkers in the order of their positions; H or OH if unused. Positions of bridges follow the written chain, without caps; N, C: chain ends. Non-standard residues stand in square brackets, D forms with d. Residues, ends and D or L forms follow the SMILES beside them. dβ3hPhg = O=C(C[C@H](N[*:1])c1ccccc1)[*:2]; Bta = N[C@@H](Cc1csc2ccccc12)C(=O)O; 4Pal = N[C@@H](Cc1ccncc1)C(=O)O; dCha = N[C@H](CC1CCCCC1)C(=O)O; Orn = NCCC[C@H](N)C(=O)O
PROPERTY: pIC50

Reported pIC50, compound CC(=O)N[C@@H](Cc1ccccc1)C(=O)N[C@H]1CCCNC(=O)[C@H](Cc2ccncc2)NC(=O)[C@H](Cc2c[nH]c3ccccc23)NC(=O)[C@@H](CC2CCCCC2)NC(=O)[C@@H]2CCCN2C1=O [compound 23] (Ac-F[Orn]P[dCha]W[4Pal]; lactam 2-C) : ____
6.70 to 7.30

What does the record list as pIC50 for CC(=O)N[C@@H](CC(=O)N[C@@H](CCCN)C(=O)N1CCC[C@H]1C(=O)N[C@H](CC1CCCCC1)C(=O)N[C@@H](Cc1csc2ccccc12)C(=O)N[C@@H](Cc1ccccc1)C(N)=O)c1ccccc1 [Compound 125, Ac-Eby-Orn-Pro-cha-Bta-Phe-NH2] (Ac-[dβ3hPhg][Orn]P[dCha][Bta]F-NH2) ?
7.30 to 7.70

All values here come from patent US20080161232A1.
